// provenance: the Human Domainome abundance scans (Beltran et al. 2025)

B1: Spectrin alpha chain, erythrocytic 1, residues 979 to 1036; numbered along this chain, P02549 (parent)
chain: EQRVMALYDFQARSPREVTMKKGDVLTLLSSINKDWWKVEAADHQGIVPAVYVRRLAH

variants of: B1; assay: abundance fitness (aPCA) (normalised: wild type 0, dead -1); higher = more abundant; growth selection in yeast, the domain comes from the species named; details: Homo sapiens
Quantity: abundance fitness

[[record]]
sequence_code = "EQRVMALYDFQARSPREVTMKKGDVLTLLMSINKDWWKVEAADHQGIVPAVYVRRLAH [S30M]"
quantity = "abundance fitness"
obs_value = -0.463

[[record]]
sequence_code = "EQRVMALYDFQARSPREVTMKKGDVLTLLSSINKDWWIVEAADHQGIVPAVYVRRLAH [K38I]"
quantity = "abundance fitness"
obs_value = 0.097

[[record]]
sequence_code = "EQRVMALYDFQARSPREVTMKKGDVLTLLSSINKDWWKVEAADHDGIVPAVYVRRLAH [Q45D]"
quantity = "abundance fitness"
obs_value = -0.498

[[record]]
sequence_code = "EQRVMALYDFQARSGREVTMKKGDVLTLLSSINKDWWKVEAADHQGIVPAVYVRRLAH [P15G]"
quantity = "abundance fitness"
obs_value = -0.46

[[record]]
sequence_code = "EQRVMALYDFQARSPREVTMKKGDVLTLLSSINKDWWKVEAADHQGIVPAVYVQRLAH [R54Q]"
quantity = "abundance fitness"
obs_value = 0.052

[[record]]
sequence_code = "EQRVMALYDFQARSPREVTMKKGDVLTLLSSINKDWWKVEAADHQGIVPAVYVRRCAH [L56C]"
quantity = "abundance fitness"
obs_value = -0.169

[[record]]
sequence_code = "EQRVMALYDFQAVSPREVTMKKGDVLTLLSSINKDWWKVEAADHQGIVPAVYVRRLAH [R13V]"
quantity = "abundance fitness"
obs_value = -0.867

[[record]]
sequence_code = "EQRVMALYDFQARSPREVTMKKGDVLTLLSSINKDWWKVEAADHQKIVPAVYVRRLAH [G46K]"
quantity = "abundance fitness"
obs_value = -0.459

[[record]]
sequence_code = "EQRVMALYDPQARSPREVTMKKGDVLTLLSSINKDWWKVEAADHQGIVPAVYVRRLAH [F10P]"
quantity = "abundance fitness"
obs_value = -0.712

[[record]]
sequence_code = "EQFVMALYDFQARSPREVTMKKGDVLTLLSSINKDWWKVEAADHQGIVPAVYVRRLAH [R3F]"
quantity = "abundance fitness"
obs_value = 0.074

[[record]]
sequence_code = "EQRVCALYDFQARSPREVTMKKGDVLTLLSSINKDWWKVEAADHQGIVPAVYVRRLAH [M5C]"
quantity = "abundance fitness"
obs_value = -0.516

[[record]]
sequence_code = "EQRVMALYDFQARSPREVTMKKGDVLTLLSSINKDWWKVEQADHQGIVPAVYVRRLAH [A41Q]"
quantity = "abundance fitness"
obs_value = -0.287

[[record]]
sequence_code = "EQRVMALYDFQARSPREVTMKKGQVLTLLSSINKDWWKVEAADHQGIVPAVYVRRLAH [D24Q]"
quantity = "abundance fitness"
obs_value = 0.579

[[record]]
sequence_code = "EQRVMAKYDFQARSPREVTMKKGDVLTLLSSINKDWWKVEAADHQGIVPAVYVRRLAH [L7K]"
quantity = "abundance fitness"
obs_value = -0.176

[[record]]
sequence_code = "EQRVMALYDFQARSPREVTMKKGDVLTLLSSINKDWWKVESADHQGIVPAVYVRRLAH [A41S]"
quantity = "abundance fitness"
obs_value = 0.232

[[record]]
sequence_code = "EQRVMALYDFQARSPREVTMKKGDVLTLLSSINKDWWKVEAADSQGIVPAVYVRRLAH [H44S]"
quantity = "abundance fitness"
obs_value = 0.03

[[record]]
sequence_code = "EQRVMALYDFQARSPREVTMKKGDVLTALSSINKDWWKVEAADHQGIVPAVYVRRLAH [L28A]"
quantity = "abundance fitness"
obs_value = -0.762

[[record]]
sequence_code = "EQRVMALYDFQARSPREVTMKKGDVLNLLSSINKDWWKVEAADHQGIVPAVYVRRLAH [T27N]"
quantity = "abundance fitness"
obs_value = -0.246

[[record]]
sequence_code = "EQRVMALYDFQARSPREVTMKRGDVLTLLSSINKDWWKVEAADHQGIVPAVYVRRLAH [K22R]"
quantity = "abundance fitness"
obs_value = -0.238

[[record]]
sequence_code = "EQRVMALYDFQARSPREVTMKKGDVLTLLSSINKDWWFVEAADHQGIVPAVYVRRLAH [K38F]"
quantity = "abundance fitness"
obs_value = 0.208

[[record]]
sequence_code = "EQRVMALYDFQAFSPREVTMKKGDVLTLLSSINKDWWKVEAADHQGIVPAVYVRRLAH [R13F]"
quantity = "abundance fitness"
obs_value = -0.585

[[record]]
sequence_code = "EQRVMALYDFQARSPREVTMKKGDVLTLLSSIRKDWWKVEAADHQGIVPAVYVRRLAH [N33R]"
quantity = "abundance fitness"
obs_value = -0.739

